The following compounds have recorded pKi on Cannabinoid receptor 2 (Homo sapiens, UniProt P34972).
Sequence (P34972 whole entry): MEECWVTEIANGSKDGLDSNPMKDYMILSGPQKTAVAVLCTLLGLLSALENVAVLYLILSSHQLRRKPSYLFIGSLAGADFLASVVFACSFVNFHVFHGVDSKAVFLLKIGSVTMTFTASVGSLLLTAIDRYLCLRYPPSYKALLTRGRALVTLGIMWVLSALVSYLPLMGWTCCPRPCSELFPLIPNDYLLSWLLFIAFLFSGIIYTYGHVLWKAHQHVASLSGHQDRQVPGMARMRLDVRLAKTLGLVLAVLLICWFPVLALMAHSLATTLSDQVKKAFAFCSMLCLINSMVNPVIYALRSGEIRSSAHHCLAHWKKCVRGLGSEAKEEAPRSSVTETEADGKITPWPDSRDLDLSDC
Schema: pKi number; meaning minus log10 of the concentration expressed in molar units.

Below are worked cases with known answers.
In [3]: df
Out[3]:
                                   compound                         target_under_test  measured_property  recorded_value
0  CCCCCn1cc(C(=O)NC2CCCCCC2)c(=O)n2nc(-c3ccco3)cc12  Cannabinoid receptor 2 (Homo sapiens, UniProt P34972)                pKi            8.18
1  CCCCCn1cc(C(=O)NC2CCCCC2)c(=O)n2nc(C(C)(C)C)cc12  Cannabinoid receptor 2 (Homo sapiens, UniProt P34972)                pKi            7.91
2  CCCCCn1cc(C(=O)NC23CC4CC(CC(C4)C2)C3)c(=O)n2nc(C)c(-c3ccccc3)c12  Cannabinoid receptor 2 (Homo sapiens, UniProt P34972)                pKi            6.74
3  CCCCCn1cc(C(=O)NC2CCC(C)CC2)c(=O)n2nc(C)cc12 (centres undefined)  Cannabinoid receptor 2 (Homo sapiens, UniProt P34972)                pKi            6.97
4  CCCCCn1cc(C(=O)NC23CC4CC(CC(C4)C2)C3)c(=O)n2nc(-c3ccc(C)cc3)cc12  Cannabinoid receptor 2 (Homo sapiens, UniProt P34972)                pKi            8.47

Please look at the following compound next.
The reported value for CCCCCn1cc(C(=O)NC2CCCCC2)c(=O)n2nc(-c3ccccc3Cl)cc12 in terms of pKi is 7.33

====

target.under.test: Cannabinoid receptor 2 (Homo sapiens, UniProt P34972)
measured.property: Ki

Here's what some known entries look like.
                               smiles_entry  measured_property  recorded_value
0  CCCCCn1cc(C(=O)NC2CCCCC2)c(=O)n2nc(-c3ccc(Cl)cc3Cl)cc12                 Ki           52 nM
1  CCCCCn1cc(C(=O)NC2CCCCCC2)c(=O)n2nc(-c3ccccc3C)cc12                 Ki         8.93 nM
2  CCCCCn1cc(C(=O)NCc2ccccc2)c(=O)n2nc(C)cc12                 Ki          358 nM
3  CCCCCn1cc(C(=O)NC2CCCCCC2)c(=O)n2nc(-c3ccccc3Cl)cc12                 Ki         10.3 nM
4  CCCCCn1cc(C(=O)NC23CC4CC(CC(C4)C2)C3)c(=O)n2nc(-c3ccccc3C)cc12                 Ki         2.86 nM

API: the following record is the query input.
Reported Ki (Cannabinoid receptor 2 (Homo sapiens, UniProt P34972)) for entry CCCCCn1cc(C(=O)NC2CCCCCC2)c(=O)n2nc(-c3ccccc3)cc12 is 31 nM

====

target.under.test: Cannabinoid receptor 2 (Homo sapiens)
test.name: Inverse agonist activity at human CB2 receptor expressed in CHO cell membrane assessed as increase in forskolin-stimulated cAMP production at 1 uM by scintillation counting analysis relative to WIN55212-2
So basically: is Activity under 70%? Then class 1. Not under? Then class 0.

Here are 8 molecules together with their reported answers.
                               smiles_entry  answer_label
0  CCCCCn1cc(C(=O)NC2CCCCC2)c(=O)n2nc(-c3ccco3)cc12       class 0
1  CCCCCn1cc(C(=O)NC2CCCCC2)c(=O)n2nc(-c3ccc(Cl)cc3Cl)cc12       class 1
2  CCCCCn1cc(C(=O)NC2CCCCC2)c(=O)n2nc(-c3ccc(Cl)cc3)cc12       class 0
3  CCCCCn1cc(C(=O)NC2CCCCC2)c(=O)n2nc(C)cc12       class 1
4  CCCCCn1cc(C(=O)NC2CCCCCC2)c(=O)n2nc(C)cc12       class 1
5  CCCCCn1cc(C(=O)NC23CC4CC(CC(C4)C2)C3)c(=O)n2nc(-c3c(Cl)cccc3Cl)cc12       class 1
6  CCCCCn1cc(C(=O)NC23CC4CC(CC(C4)C2)C3)c(=O)n2nc(-c3ccccc3C)cc12       class 0
7  CCCCCn1cc(C(=O)NC2CCCCC2)c(=O)n2nc(-c3ccccc3Cl)cc12       class 1

Exam item: Lab note: Activity threshold 70%. Does this molecule come in strictly under it? CCCCCn1cc(C(=O)NC23CC4CC(CC(C4)C2)C3)c(=O)n2nc(-c3cccs3)cc12
Marked response: class 0
